# System Tested: human full-length MKNK1 (GST fusion, T344D) (Homo sapiens (Human), UniProt Q9BUB5, T344D)
# Sequence (Q9BUB5 other isoform, or with tags, fused parts or gaps T344D): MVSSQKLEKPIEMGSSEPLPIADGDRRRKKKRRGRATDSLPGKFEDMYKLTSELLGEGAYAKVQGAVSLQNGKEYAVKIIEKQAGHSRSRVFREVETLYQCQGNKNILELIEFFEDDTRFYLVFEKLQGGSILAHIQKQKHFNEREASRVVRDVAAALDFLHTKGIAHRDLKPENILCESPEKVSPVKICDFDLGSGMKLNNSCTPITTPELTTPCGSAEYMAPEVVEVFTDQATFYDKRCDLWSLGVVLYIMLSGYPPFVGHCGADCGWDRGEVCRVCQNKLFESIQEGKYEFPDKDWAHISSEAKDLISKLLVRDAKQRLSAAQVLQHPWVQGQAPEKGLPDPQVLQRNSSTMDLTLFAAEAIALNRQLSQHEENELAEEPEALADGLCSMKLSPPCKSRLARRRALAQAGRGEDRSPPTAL
# Assay Overview: MKNK1 kinase high ATP assay (TR-FRET, 2 mM ATP)
# Measurement Setup: 15 min preincubation
Measured Property: pIC50
Schema: pIC50 number; meaning minus log10 of the concentration expressed in molar units.

Fill in reported pIC50 for this entry: O=C(Cc1ccccc1)Nc1ccc2ncc(-c3cc4ccccc4o3)n2n1 [Example 1]
7.74

Fill in reported pIC50 for this entry: O=C(Nc1ccc2ncc(-c3cc4ccccc4o3)n2n1)C(O)C1CCCCC1 (stereo not shown) [Example 4]
8.00

Fill in reported pIC50 for this entry: O=C(CCc1c[nH]cn1)Nc1ccc2ncc(-c3cc4ccccc4o3)n2n1 [Example 19]
8.22

Fill in reported pIC50 for this entry: C[C@H](O)C(=O)Nc1ccc2ncc(-c3cc4ccccc4o3)n2n1 [Example 14]
7.70

Fill in reported pIC50 for this entry: O=C(CCc1cccnc1)Nc1ccc2ncc(-c3cc4ccccc4o3)n2n1 [Example 9]
8.15

Fill in reported pIC50 for this entry: COc1nccc2oc(-c3cnc4ccc(NC(=O)[C@H](C)O)nn34)cc12 [Example 16]
7.89

Fill in reported pIC50 for this entry: C[C@@H](O)C(=O)Nc1ccc2ncc(-c3cc4ccccc4o3)n2n1 [Example 13]
7.92

Fill in reported pIC50 for this entry: CCN(CC)CCC(=O)Nc1ccc2ncc(-c3cc4ccccc4o3)n2n1 [Example 23]
7.89

Fill in reported pIC50 for this entry: CC(C)CC(=O)Nc1ccc2ncc(-c3cc4ccccc4o3)n2n1 [Example 17]
8.15

Fill in reported pIC50 for this entry: O=C1CC[C@@H](CO)N1c1ccc2ncc(-c3cc4ccccc4o3)n2n1 [Example 11]
8.15

Fill in reported pIC50 for this entry: O=C(Cc1ccccn1)Nc1ccc2ncc(-c3cc4ccccc4o3)n2n1 [Example 6]
7.92

Fill in reported pIC50 for this entry: O=C(Nc1ccc2ncc(-c3cc4ccccc4o3)n2n1)C(O)c1ccccc1 (stereo not shown) [Example 2]
7.74

Fill in reported pIC50 for this entry: CC1CCN(CC(=O)Nc2ccc3ncc(-c4cc5ccccc5o4)n3n2)CC1 [Example 32]
7.74

Fill in reported pIC50 for this entry: O=C(Cc1cccc(F)c1)Nc1ccc2ncc(-c3cc4ccccc4o3)n2n1 [Example 8]
7.64

Fill in reported pIC50 for this entry: N#CC1(C(=O)Nc2ccc3ncc(-c4cc5ccccc5o4)n3n2)CC1 [Example 24]
7.44

Fill in reported pIC50 for this entry: N#Cc1cccc(CC(=O)Nc2ccc3ncc(-c4cc5ccccc5o4)n3n2)c1 [Example 21]
7.96
